# pIC50 listing for each entry below
Measurement Target: UniProt:P25774
Sequence (P25774 whole entry): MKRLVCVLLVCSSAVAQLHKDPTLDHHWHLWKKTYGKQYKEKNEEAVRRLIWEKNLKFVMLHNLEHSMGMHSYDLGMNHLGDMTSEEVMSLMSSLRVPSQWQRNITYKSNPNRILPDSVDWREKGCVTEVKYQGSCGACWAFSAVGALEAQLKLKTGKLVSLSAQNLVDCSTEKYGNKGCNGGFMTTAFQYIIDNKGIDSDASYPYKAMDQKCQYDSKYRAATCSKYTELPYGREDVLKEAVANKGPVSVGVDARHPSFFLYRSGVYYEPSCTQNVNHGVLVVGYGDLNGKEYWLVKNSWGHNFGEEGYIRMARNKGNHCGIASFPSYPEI
Test Method Notes: Inhibition of recombinant human cathepsin S
pIC50: −log10 of the molar value.
Measured Attribute: pIC50

1) CCCCO[C@@H]1NC(=O)[C@H]1NC(=O)[C@H](Cc1ccccc1)NC(=O)OCc1ccccc1: 6.45
2) O=C(N[C@@H](Cc1ccccc1)C(=O)N[C@@H]1C(=O)N[C@H]1OC(=O)c1ccccc1)OCc1ccccc1: 7.70
3) O=C(N[C@@H](Cc1ccccc1)C(=O)N[C@@H]1C(=O)N[C@H]1S(=O)(=O)c1ccccc1)OCc1ccccc1: 7.32
4) CC(=O)O[C@@H]1NC(=O)[C@H]1NC(=O)[C@H](Cc1ccccc1)NC(=O)OCc1ccccc1: 6.68
5) O=C(CCc1ccccc1)O[C@@H]1NC(=O)[C@H]1NC(=O)[C@H](Cc1ccccc1)NC(=O)OCc1ccccc1: 7.39
6) O=C(N[C@@H](Cc1ccccc1)C(=O)N[C@@H]1C(=O)N[C@H]1Oc1ccccc1)OCc1ccccc1: 6.48
7) O=C(N[C@@H](Cc1ccccc1)C(=O)N[C@@H]1C(=O)N[C@H]1Sc1ccccc1)OCc1ccccc1: 6.48
8) O=C(N[C@@H](Cc1ccccc1)C(=O)N[C@@H]1C(=O)N[C@@H]1Sc1ccccc1)OCc1ccccc1: 5.60

----------
Measurement Target: Cathepsin K (Homo sapiens)
Sequence (P43235 whole entry): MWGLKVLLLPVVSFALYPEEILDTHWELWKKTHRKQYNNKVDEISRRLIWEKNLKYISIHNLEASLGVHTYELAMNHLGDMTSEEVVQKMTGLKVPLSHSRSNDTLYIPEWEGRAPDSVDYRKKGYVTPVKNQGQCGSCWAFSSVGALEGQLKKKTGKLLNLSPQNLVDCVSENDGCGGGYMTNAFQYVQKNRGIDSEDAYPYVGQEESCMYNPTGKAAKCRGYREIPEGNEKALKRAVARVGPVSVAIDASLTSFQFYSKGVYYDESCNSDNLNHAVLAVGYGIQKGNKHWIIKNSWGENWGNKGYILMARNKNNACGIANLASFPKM
Test Method Notes: Inhibition of recombinant human Cathepsin K
Measured Attribute: log10(IC50) (log10 of the value in nM)

1. O=C(N[C@@H](Cc1ccccc1)C(=O)N[C@@H]1C(=O)N[C@H]1S(=O)(=O)c1ccccc1)OCc1ccccc1: 0.81
2. CC(C)CO[C@@H]1NC(=O)[C@H]1NC(=O)[C@H](Cc1ccccc1)NC(=O)OCc1ccccc1: 3.36
3. CC(=O)O[C@@H]1NC(=O)[C@H]1NC(=O)[C@H](Cc1ccccc1)NC(=O)OCc1ccccc1: 2.00
4. O=C(N[C@@H](Cc1ccccc1)C(=O)N[C@@H]1C(=O)N[C@@H]1Oc1ccccc1)OCc1ccccc1: 1.20
5. O=C(N[C@@H](Cc1ccccc1)C(=O)N[C@@H]1C(=O)N[C@H]1Sc1ccccc1)OCc1ccccc1: 0.92

----------
Measurement Target: Cathepsin K (Homo sapiens)
Sequence (P43235 whole entry): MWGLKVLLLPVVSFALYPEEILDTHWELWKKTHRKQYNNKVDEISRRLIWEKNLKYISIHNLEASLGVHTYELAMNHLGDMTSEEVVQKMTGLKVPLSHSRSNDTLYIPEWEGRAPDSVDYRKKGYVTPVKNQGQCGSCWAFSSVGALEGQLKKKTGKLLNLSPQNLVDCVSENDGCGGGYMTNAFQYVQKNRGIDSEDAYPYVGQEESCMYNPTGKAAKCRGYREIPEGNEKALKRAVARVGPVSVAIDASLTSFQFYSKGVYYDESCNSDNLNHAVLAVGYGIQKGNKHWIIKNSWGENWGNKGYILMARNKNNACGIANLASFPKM
Test Method Notes: Inhibition of recombinant human Cathepsin K
# IC50 listing for each entry below
Measured Attribute: IC50 (µM)

1) O=C(CCc1ccccc1)O[C@@H]1NC(=O)[C@H]1NC(=O)[C@H](Cc1ccccc1)NC(=O)OCc1ccccc1: 0.038
2) O=C(N[C@@H](Cc1ccccc1)C(=O)N[C@@H]1C(=O)N[C@H]1OC(=O)c1ccccc1)OCc1ccccc1: 0.1
3) CCCCO[C@@H]1NC(=O)[C@H]1NC(=O)[C@H](Cc1ccccc1)NC(=O)OCc1ccccc1: 0.1
4) CC(C)(C)O[C@@H]1NC(=O)[C@H]1NC(=O)[C@H](Cc1ccccc1)NC(=O)OCc1ccccc1: 2.5
5) O=C(N[C@@H](Cc1ccccc1)C(=O)N[C@@H]1C(=O)N[C@H]1Oc1ccccc1)OCc1ccccc1: 0.1
6) O=C(N[C@@H](Cc1ccccc1)C(=O)N[C@@H]1C(=O)N[C@@H]1Sc1ccccc1)OCc1ccccc1: 0.072
7) O=C(N[C@@H](Cc1ccccc1)C(=O)N[C@@H]1C(=O)N[C@H]1OCc1ccccc1)OCc1ccccc1: 2.5
